System: MCF7
Assay: Antiproliferative activity against human MCF7 cells assessed as cell viability after 48 hrs MTT assay
Format: functional, cell-based
Conditions: MCF7, 48 h
The label criterion met is reserved for IC50 strictly under 6 µM; criterion not met covers values equal to or above it.

Example cases with answers are listed next.
O=C1C(Cl)=C(Nc2ccc(S(=O)(=O)Nc3cccc(Cl)c3)cc2)C(=O)c2ccccc21    criterion met
O=C(Nc1ccc(Cl)cn1)c1ccc(NC2=C(Cl)C(=O)c3ccccc3C2=O)cc1    criterion not met
O=C1C(Cl)=C(Nc2ccc(S(=O)(=O)Nc3ccccc3Cl)cc2)C(=O)c2ccccc21    criterion met

Okay, next one:
Hello, I'm reviewing records and need to know if IC50 of CC(C)c1ccccc1NC(=O)c1ccc(NC2=C(Cl)C(=O)c3ccccc3C2=O)cc1 is below 6 µM. Could you check?
criterion met

* * *

Measured pIC50, listed per entry for reference.
Tested on: MCF7
Test: Antiproliferative activity against human MCF7 cells assessed as cell viability after 48 hrs MTT assay
Type: functional, cell-based
Conditions: MCF7, 48 h
Here pIC50 is given on a logarithmic scale as minus log10 of the concentration in mol/L.

Look over these answered cases.
O=C1C(Cl)=C(Nc2ccc(S(=O)(=O)Nc3cccnc3Cl)cc2)C(=O)c2ccccc21    5.33
O=C1C(Cl)=C(Nc2ccc(S(=O)(=O)N3CCOCC3)cc2)C(=O)c2ccccc21    5.74

Now look at this one.
Quick check: pIC50 of Cc1ccnc(NC(=O)c2ccc(NC3=C(Cl)C(=O)c4ccccc4C3=O)cc2)c1 ?
5.76

* * *

Measured inhibition, listed per entry for reference.
Molecular target: Proteasome Macropain subunit MB1 (Homo sapiens)
Experiment: Inhibition of chymotrypsin-like activity 20S proteasome beta subunit 5 of human MCF7 cells using fluorogenic substrate Suc-LLVY-AMC at 10 uM after 1 hr by fluorescence analysis relative to control
Assay type: cell-based
Write the figure, then the unit, nothing else.

Look over these answered cases.
O=C(Nc1ccc([N+](=O)[O-])cc1)c1ccc(NC2=C(Cl)C(=O)c3ccccc3C2=O)cc1    35.3%
O=C1C(Cl)=C(Nc2ccc(S(=O)(=O)N3CCOCC3)cc2)C(=O)c2ccccc21    10.8%
CCc1ccccc1NS(=O)(=O)c1ccc(NC2=C(Cl)C(=O)c3ccccc3C2=O)cc1    17.4%
O=C(Nc1cccc2ccccc12)c1ccc(NC2=C(Cl)C(=O)c3ccccc3C2=O)cc1    16.9%
O=C1C(Cl)=C(Nc2ccc(S(=O)(=O)Nc3ccc(Cl)cn3)cc2)C(=O)c2ccccc21    42.3%

Now look at this one.
Notebook entry, Proteasome Macropain subunit MB1 (Homo sapiens) assay: inhibition of O=C(Nc1ccc(Cl)cn1)c1ccc(NC2=C(Cl)C(=O)c3ccccc3C2=O)cc1 = ?
19.4%

* * *

Molecular target: Proteasome Macropain subunit (Homo sapiens)
Experiment: Inhibition of trypsin-like activity 20S proteasome beta subunit 2 of human MCF7 cells using fluorogenic substrate Boc-LRR-AMC at 10 uM after 1 hr by fluorescence analysis relative to control
Assay type: cell-based
Activity calls are given as the source filed them. The calls are words filed in the database; no cut-off is given here.
MEASUREMENT_TYPE: inhibition

O=C(Nc1ccc(Cl)cn1)c1ccc(NC2=C(Cl)C(=O)c3ccccc3C2=O)cc1    inactive
Cc1cccnc1NS(=O)(=O)c1ccc(NC2=C(Cl)C(=O)c3ccccc3C2=O)cc1    13%
Cc1ccc(NC(=O)c2ccc(NC3=C(Cl)C(=O)c4ccccc4C3=O)cc2)nc1    inactive
O=C1C(Cl)=C(Nc2ccc(S(=O)(=O)Nc3ccc(Br)cc3)cc2)C(=O)c2ccccc21    23.8%

Now look at this one.
Notebook entry, Proteasome Macropain subunit (Homo sapiens) assay: inhibition of CCc1ccccc1NS(=O)(=O)c1ccc(NC2=C(Cl)C(=O)c3ccccc3C2=O)cc1 = ?
21.1%
